Numbers sourced from patent US9006451B1.

Assignment: determine reported log10(GI50) for the given compounds.
- System: SW-620
- ASSAY_METHOD_TEXT: NCI 60 human tumor cell line screen (SRB): SW-620
- Assay type: cell-based
- STUDY_CONDITIONS: SW-620, Colon, 48 hours, read-out: GI50 values (μM conc.)
// do not treat as linear: log10 of GI50, unit µM

-- ask Sample COc1ccc(Nc2ncccc2/C=C/C(=O)c2cc(OC)c(OC)c(OC)c2)cc1 [6h] — what was its log10(GI50)?
-- reply 0.08

-- ask // returns reported log10(GI50) for input COc1cc(/C=C/C(=O)c2cccnc2Nc2ccc(F)cc2)cc(OC)c1OC [7f]
-- reply 0.52

-- ask Reported log10(GI50) for COc1ccc(C(=O)/C=C/c2cccnc2Nc2cc(OC)c(OC)c(OC)c2)cc1 [6z] : what is it?
-- reply -0.41

-- ask # log10(GI50) lookup, item COc1cc(C(=O)/C=C/c2cccnc2Nc2ccccc2)cc(OC)c1OC [6a]
-- reply -0.38

-- ask Given the entry COc1cc(C(=O)/C=C/c2cccnc2Nc2ccc(Cl)cc2)cc(OC)c1OC [6ax] , report its measured log10(GI50).
-- reply -0.02

-- ask Which log10(GI50) is listed for COc1cc(Nc2ncccc2/C=C/C(=O)c2cc(OC)c(OC)c(OC)c2)cc(OC)c1OC [6v] ?
-- reply 0.68

---

- Test system: OVCAR-5
- ASSAY_METHOD_TEXT: NCI 60 human tumor cell line screen (SRB): OVCAR-5
- Assay type: cell-based
- STUDY_CONDITIONS: OVCAR-5, Ovarian, 48 hours, read-out: GI50 values (μM conc.)
Could you please report measured GI50 for the items listed next?
Write the answer as a number in µM, unit excluded.

-- ask Recorded GI50 for COc1cc(C(=O)/C=C/c2cccnc2Nc2ccc(Cl)cc2)cc(OC)c1OC [6ax] , please?
-- reply 1.74

-- ask Tell me the measured GI50 of COc1cc(Nc2ncccc2/C=C/C(=O)c2cc(OC)c(OC)c(OC)c2)cc(OC)c1OC [6v] , please.
-- reply 16.3

-- ask Which GI50 is listed for COc1cc(C(=O)/C=C/c2cccnc2Nc2ccccc2)cc(OC)c1OC [6a] ?
-- reply 1.54

-- ask Sample COc1ccc(Nc2ncccc2/C=C/C(=O)c2cc(OC)c(OC)c(OC)c2)cc1 [6h] — what was its GI50?
-- reply 1.97

-- ask Dear colleague, I am looking for the recorded GI50 of the following compound: COc1ccc(C(=O)/C=C/c2cccnc2Nc2cc(OC)c(OC)c(OC)c2)cc1 [6z]
-- reply 1.95

-- ask // query GI50 value for entry COc1cc(/C=C/C(=O)c2cccnc2Nc2ccc(F)cc2)cc(OC)c1OC [7f]
-- reply 4.1

---

- Test system: HCC-2998
- ASSAY_METHOD_TEXT: NCI 60 human tumor cell line screen (SRB): HCC-2998
- Assay type: cell-based
- STUDY_CONDITIONS: HCC-2998, Colon, 48 hours, read-out: GI50 values (μM conc.)
Record form. Attribute: GI50. Fill in for each entry.
Provide only the numeric value, understood in µM.

-- ask Tell me the measured GI50 of COc1cc(Nc2ncccc2/C=C/C(=O)c2cc(OC)c(OC)c(OC)c2)cc(OC)c1OC , please.
-- reply 7.74

-- ask Which value of GI50 has been reported for COc1ccc(C(=O)/C=C/c2cccnc2Nc2cc(OC)c(OC)c(OC)c2)cc1 in the records?
-- reply 1.42

-- ask Sample COc1ccc(Nc2ncccc2/C=C/C(=O)c2cc(OC)c(OC)c(OC)c2)cc1 — what was its GI50?
-- reply 1.68

-- ask Returns the measured GI50 for the input molecule. Input: COc1cc(C(=O)/C=C/c2cccnc2Nc2ccccc2)cc(OC)c1OC
-- reply 1.18

-- ask // returns reported GI50 for input COc1cc(/C=C/C(=O)c2cccnc2Nc2ccc(F)cc2)cc(OC)c1OC
-- reply 1.78

-- ask What does the data say about its GI50? Entry: COc1cc(C(=O)/C=C/c2cccnc2Nc2ccc(Cl)cc2)cc(OC)c1OC
-- reply 1.52
